method-summary: hydrophobicity (chrom LogD7.4) and property forecast index (PFI)
Assay type: physicochemical
condition-details: pH 7.4, chromatographic
reported-metric: chromatographic logD

(1) Cc1nnn(C)c1-c1cnc2c3ccc(C(C)(C)O)cc3n([C@@H](c3ccccc3)C3CCOCC3)c2c1 (stereo in doubt) [Compound 4, BMS-986158, reference compound]
(2) Cc1nnn(C)c1-c1ccc2c3nnc(NCCO)nc3n([C@@H](c3ccccn3)C3CCOCC3)c2c1 (single isomer, unassigned)
## Task Compare the recorded chromatographic logD of 1 and 2 ; state which is larger. The response must carry the label of the picked entry.
## Result 1

---

method-summary: hydrophobicity (chrom LogD7.4) and property forecast index (PFI)
Format: physicochemical
condition-details: PFI = chrom LogD7.4 + #Ar
reported-metric: PFI

Before answering, review these 3 worked examples.
{"molecule": "COCCNc1nnc2c3cc(-c4c(C)noc4C)ccc3n(Cc3ccccc3)c2n1 [Compound 12b]", "reported-metric": "PFI", "experimental-value": 10.8}
{"molecule": "COCCNc1nnc2c(n1)[nH]c1ccc(-c3c(C)noc3C)cc12", "reported-metric": "PFI", "experimental-value": 6.78}
{"molecule": "COCCNc1nnc2c3ccc(-c4c(C)noc4C)cc3n(C(c3ccccn3)C3CCNCC3)c2n1 (stereo not drawn)", "reported-metric": "PFI", "experimental-value": 7.37}

(a) COCCNc1nnc2c3ccc(-c4c(C)noc4C)cc3n(Cc3ccc(F)cc3)c2n1 [Compound 13a]
(b) Cc1nnn(C)c1-c1ccc2c3nnc(NCCO)nc3n([C@@H](c3ccccn3)C3CCOCC3)c2c1 (single isomer, unassigned)
## Task When a and b are compared, which has the higher number for PFI? Reply with the label of the item you choose.
## Result a
(a: 10.7, b: 7.14)

(I) COCCNc1nnc2c3cc(-c4c(C)noc4C)ccc3n(C(c3ccccc3)C3CCOCC3)c2n1 (stereo not drawn)
(II) COCCNc1nnc2c(n1)[nH]c1cc(-c3c(C)noc3C)ccc12
## Task Select one: I or II . Criterion: greater recorded PFI. Please reply using the label of the selected record.
## Result I
(I: 10.7, II: 6.83)
